# Test system: PPARg:RXRa DBDmut IVT, anti-RXR (DBD mutation: RXRa K156A/R161A, NR concentration 270 nM, RXRa partner concentration 90 nM)
# experiment_notes: PBM binding z-score (relative to random genomic background probes); higher = stronger binding; sequences stand for … in GC…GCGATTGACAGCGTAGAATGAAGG
The sequences listed here are annotated with their PBM binding z-score.
Give a plain numeric answer without units written out.

Reference set (5 entries):
# sequence_data, numeric_readout
rows = [
    ("ACAGACAGGTGATGAAGCTAACTCAGGCTATCAT", -0.036),
    ("ATCTCTAGGTAAGACTCAGCTCAGTGAAGAACGC", 1.68),
    ("CCGTCTGGGGCAGAAAGGTTACCATACCATCCGG", 0.505),
    ("TCCATTAGTTGAAGGGCAACCGACGAGTCCGTTT", 2.37),
    ("CAAACTAGGTCACAGAGGTCAATGTCCGTGCGTA", 8.72),
]

Turning now to a further record.
Exam item: Name the reported PBM binding z-score value associated with the sequence ACTATTAGTTGACTTAGGGCAACCGTTACGACGC
Marked response: 0.596
